tested on: Weizenbraunrost (Puccinia recondita); assay: Versuch 2: activity against wheat brown rust on wheat seedlings; type: in vivo; settings: 0,025; 0,006; 0,0015 %ige Spritzbrühen; sprayed 24 h after inoculation; assessed after 8 days; value given as 'beispielsweise'
In this section we review reported fungizide Wirkung gegen Weizenbraunrost values for a set of compounds.
Quantity measured: fungizide Wirkung gegen Weizenbraunrost (%)

Compound	Unit annotation	Meas value
Clc1ccc(C2OC2(Cn2cncn2)c2ccc(Br)cc2)cc1 (single isomer, unassigned)	%	100
Clc1ccc(C2OC2(Cn2ccnc2)c2ccccc2)c(Cl)c1 (single isomer, unassigned)	%	100
OC(Cn1ccnc1)c1ccc(Cl)cc1Cl (stereo not shown) [Wirkstoff A, reference compound]	%	50
Clc1ccc(C2(Cn3cncn3)OC2c2ccc(Cl)cc2Cl)cc1 (single isomer, unassigned)	%	100
